Item-by-item account of pEC50
Target: Progesterone receptor (Homo sapiens, UniProt P06401)
Sequence (P06401 whole entry): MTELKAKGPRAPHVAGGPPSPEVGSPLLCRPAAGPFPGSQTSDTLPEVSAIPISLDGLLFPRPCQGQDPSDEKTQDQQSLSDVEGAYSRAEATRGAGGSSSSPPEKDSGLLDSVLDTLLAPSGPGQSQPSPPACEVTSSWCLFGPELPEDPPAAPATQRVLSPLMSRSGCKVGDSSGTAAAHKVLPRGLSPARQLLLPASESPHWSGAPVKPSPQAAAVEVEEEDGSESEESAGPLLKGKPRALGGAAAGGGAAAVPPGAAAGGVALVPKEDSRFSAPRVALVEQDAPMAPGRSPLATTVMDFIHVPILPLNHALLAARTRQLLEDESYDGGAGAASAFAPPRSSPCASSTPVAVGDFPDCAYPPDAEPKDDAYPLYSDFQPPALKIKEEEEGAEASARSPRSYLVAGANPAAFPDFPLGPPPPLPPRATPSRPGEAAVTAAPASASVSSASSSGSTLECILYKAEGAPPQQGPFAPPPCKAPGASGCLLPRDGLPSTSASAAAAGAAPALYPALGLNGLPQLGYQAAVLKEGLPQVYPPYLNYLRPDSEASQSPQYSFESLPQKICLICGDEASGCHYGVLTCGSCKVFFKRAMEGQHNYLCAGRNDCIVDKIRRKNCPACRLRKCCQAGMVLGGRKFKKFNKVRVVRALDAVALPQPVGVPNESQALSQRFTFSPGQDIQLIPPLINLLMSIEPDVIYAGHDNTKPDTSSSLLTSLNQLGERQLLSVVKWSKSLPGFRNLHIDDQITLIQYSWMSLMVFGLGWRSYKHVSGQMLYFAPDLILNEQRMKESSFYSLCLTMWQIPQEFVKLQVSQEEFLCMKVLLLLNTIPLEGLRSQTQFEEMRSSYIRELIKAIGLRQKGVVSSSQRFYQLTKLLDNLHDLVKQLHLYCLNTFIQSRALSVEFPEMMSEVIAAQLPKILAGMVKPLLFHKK
Experiment: Activation of Gal-DBD and NHRLBD fused PR (unknown origin) transfected in African green monkey CV-1 cells by luciferase reporter assay
pEC50: −log10 of the molar value.

Record Smiles: O=C(O)C1(c2cccc(-c3ccc(OCc4c(-c5c(Cl)cccc5Cl)noc4C4CC4)cc3)c2)CC1
Measurement Target: Progesterone receptor (Homo sapiens, UniProt P06401)
pEC50: < 5.00

Next molecule, pEC50 to be filled in.
Briefly, pEC50 measured for O=C(O)Cc1ccc(-c2ccc(OCc3c(-c4c(Cl)cccc4Cl)noc3C3CC3)cc2)cc1 : < 5.00

---

Molecular target: Peroxisome proliferator-activated receptor alpha (Homo sapiens, UniProt Q07869)
Sequence (Q07869 whole entry): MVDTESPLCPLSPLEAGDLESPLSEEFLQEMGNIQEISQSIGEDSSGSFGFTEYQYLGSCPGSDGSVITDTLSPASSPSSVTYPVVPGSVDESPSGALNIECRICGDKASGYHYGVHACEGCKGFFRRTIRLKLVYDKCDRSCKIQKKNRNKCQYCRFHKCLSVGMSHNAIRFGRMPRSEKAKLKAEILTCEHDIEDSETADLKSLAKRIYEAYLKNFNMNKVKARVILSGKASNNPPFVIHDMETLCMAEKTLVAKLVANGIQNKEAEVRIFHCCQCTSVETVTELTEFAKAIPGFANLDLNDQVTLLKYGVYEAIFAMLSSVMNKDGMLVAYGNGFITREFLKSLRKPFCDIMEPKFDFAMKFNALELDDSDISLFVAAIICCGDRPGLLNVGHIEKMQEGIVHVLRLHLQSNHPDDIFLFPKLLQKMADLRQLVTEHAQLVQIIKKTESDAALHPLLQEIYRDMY
Assay: Agonist activity at pBIND-PPARalpha (unknown origin) transfected in HepG2 cells incubated for 18 hrs by renilla/firefly based dual-glo luciferase assay
pEC50: −log10 of the molar value.
Measured Metric: pEC50

Briefly, pEC50 measured for O=C(O)C1(c2cccc(-c3ccc(OCc4c(-c5c(Cl)cccc5Cl)noc4C4CC4)cc3)c2)CC1 : < 5.00

---

Assay: Metabolic stability in rhesus monkey liver microsomes assessed as parent compound remaining incubated for 1 hr by LC-MS analysis
Type: ADME, Macaca mulatta, Microsome
Details: read-out: Stability
Item-by-item account of remaining at 1 h
Use % as the unit, but write only the number.

Record Smiles: O=C(O)Cc1ccc(-c2ccc(OCc3c(-c4c(Cl)cccc4Cl)noc3C3CC3)cc2)cc1
remaining at 1 h [%]: 64.5

Next molecule, remaining at 1 h to be filled in.
Briefly, remaining at 1 h measured for O=C(O)C1(c2cccc(-c3ccc(OCc4c(-c5c(Cl)cccc5Cl)noc4C4CC4)cc3)c2)CC1 : 71

Reference source for all entries: ChEMBL document CHEMBL5338751
